# Target under test: T1, human GITR on naïve CD4+ T cells (human, UniProt Q9Y5U5 26-241)
# T1 sequence: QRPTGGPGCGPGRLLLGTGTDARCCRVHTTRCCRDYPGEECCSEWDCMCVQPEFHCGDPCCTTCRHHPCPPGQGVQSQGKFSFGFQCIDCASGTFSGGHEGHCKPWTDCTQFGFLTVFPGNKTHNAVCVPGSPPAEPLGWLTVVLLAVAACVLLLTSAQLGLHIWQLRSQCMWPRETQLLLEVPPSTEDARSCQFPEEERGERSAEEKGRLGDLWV
# Experiment description: cell-based or functional assay
# proliferation of naïve CD4+ T cells, mean, at 0.9 ng/mL Ab values compiled below
Format: numeric value only, no unit, no commentary.

Answered cases to consult:
{"Binder": "31H6 (antibody, V domains shown, Parental rodent anti-human GITR monoclonal antibody from a hybridoma; kappa VL; also called 31H6.B7) VH: QVTLKESGPGILQPSQTLSLTCTFSGFSLSTYGVGVGWIRQPSGKGLEWLANIWWDDDKYYNPSLKNRLTISKDTSNNQAFLKITNVDTAETATYYCAQIKEPRDWFFEFWGPGTMVSVSS VL: DIQMTQTPSSMPASLGERVTIFCRASQGVNNYLTWYQQKPDGTIKPLIFYTSNLQSGVPSRFSGSGSGTDYSLSISSLEPEDFAMYYCQQYHGFPNTFGAGTKLELKR", "Result value": 57000}
{"Binder": "1D8 (antibody, V domains shown, Parental rodent anti-human GITR monoclonal antibody from a hybridoma; kappa VL; also called 1D8.B5) VH: QVTLKESGPGILKPSQTLSLTCSFSGFSLSTSGMGVGWIRQPSGKGLEWLAHIWWDDDKYYSPSLKSQLTISKDTSRNQVFLKITSLDTADTATYYCVRSYYYGSSGAMDYWGQGTSVTVSS VL: DIVMTQTPLSLPVSLGDQASISCRSSQSLVHSDGNTYLHWYLQKPGQSPKLLIYKVSKRFSGVPDRFSGSGSGTDFTLKISRVEAEDLGVYFCSQSTHVPPTFGGGTKLEIKR", "Result value": 64800}

Now for the binder whose proliferation of naïve CD4+ T cells, mean, at 0.9 ng/mL Ab we want.
What value of measured proliferation of naïve CD4+ T cells, mean, at 0.9 ng/mL Ab is listed for 17F10 (antibody, V domains shown, Parental rodent anti-human GITR monoclonal antibody from a hybridoma; kappa VL; also called 17F10.B1) VH: EVKLVESGGGFVKPGGSLKLSCAASGFTVRNYAMSWVRQTPEKRLEWVASISTGDRSYLPDSMKGRFTISRDNARNILYLQMSSLRSEDTAIYYCQRYFDFDSFAFWGQGTLVTVSA VL: DIQMTQTPSSLSASLGDRVTISCRASQDINNFLNWYQQKPDGSLKLLIYYTSKLHSGVPSRFSGSGSGTDFSLTISNLDQEDVATYFCQQGHTLPPTFGGGTKLEVKR ?
62000
